Entry source: patent US20250064909A1

kon overview
Target: T1, recombinant human TIGIT (Sino Biological) (human, UniProt Q495A1 22-138)
T1 construct: Bought protein; NP_776160.2; also called human TIGIT antigen; hTIGIT
T1 sequence: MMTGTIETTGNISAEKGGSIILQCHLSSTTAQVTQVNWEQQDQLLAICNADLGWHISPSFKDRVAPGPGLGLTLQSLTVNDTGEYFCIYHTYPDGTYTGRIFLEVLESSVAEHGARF
Assay: SPR (Biacore T200), single cycle kinetics, IgG from supernatant captured on anti-human chip, TIGIT as analyte, 1:1 fit;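 further: measured at 25 °C in HBS-P+ with 1% BSA, four ascending TIGIT concentrations, 210 s association per step, one final 900 s dissociation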
Write it as a number; the unit M⁻¹ s⁻¹ goes unstated.

7A6 VH1/Vκ2 humanized antibody (human IgG1, kappa) (antibody, V domains shown, Tested as IgG in supernatant of transiently transfected HEK293 EBNA cells) VH: DVQLQESGPGLVKPSQTLSLTCTVTGYSITSDYAWNWIRQPPGKGLEWMGYISYSGSARYNPSLKSRITISRDTSMNQFSLKLNSVTAEDTATYYCARKGYPAYFAYWGQGTLVTVSS VL: DIVMTQSPSSLSASVGDRVSITCKASQDVSTAVAWYQQKPGQAPRLLIYSASYRYTGVPDRFTGSGSGTDFTLTISSLQAEDVAVYYCQHHYSTPYTFGQGTKLEIKR    1.8e+06
7A6 VH4/Vκ3 humanized antibody (human IgG1, kappa) (antibody, V domains shown, Tested as IgG in supernatant of transiently transfected HEK293 EBNA cells) VH: QVQLQESGPGLVKPSQTLSLTCTVTGYSITSDYAWNWIRQPPGKGLEWMGYISYSGSARYNPSLKSRVTISRDTSKNQFSLKLSSVTAADTAVYYCARKGYPAYFAYWGQGTLVTVSS VL: DIQMTQSPSSLSASVGDRVSITCKASQDVSTAVAWYQQKPGQAPRLLIYSASYRYTGVPDRFSGSGSGTDFTLTISSLQAEDVAVYYCQHHYSTPYTFGQGTKLEIKR    1.85e+06

Consider the record given below.
Ask: Consider the binder 7A6 VH1/Vκ1 humanized antibody (human IgG1, kappa) (antibody, V domains shown, Tested as IgG in supernatant of transiently transfected HEK293 EBNA cells) VH: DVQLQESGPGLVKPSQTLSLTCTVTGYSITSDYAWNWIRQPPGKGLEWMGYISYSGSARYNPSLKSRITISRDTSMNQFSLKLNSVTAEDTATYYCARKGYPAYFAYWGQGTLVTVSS VL: DIVMTQSHSFLSASVGDRVSITCKASQDVSTAVAWYQQKPGQAPELLIYSASYRYTGVPDRFTGSGSGTDFTLTISSLQAEDVAVYYCQHHYSTPYTFGQGTKLEMKR and give its recorded kon.
Result: 2.33e+06
